# experimental target: CYP3A4 (Homo sapiens)
# assay details: Inhibition of CYP3A4 in HBV-infected human HepaRG cells at 50 uM using luciferin-IPA as substrate treated for 1 hr on day 5 post-infection followed by removal of media and supplemented with fresh media and further incubated for 3 days in presence of 10 mM ABT by P450-Glo chemiluminescent assay relative to control
# Assay type: ADME, tissue-based
# condition: probe luciferin-IPA, with ABT 10 mM
readout label: inhibition at 1 h, 50 µM (%)

- molecule: "CCCC(C(=O)OCCN(CC)CC)(c1ccccc1)c1ccccc1 [PROADIFEN]"
  experimental target: "CYP3A4 (Homo sapiens)"
  endpoint unit: "%"
  measured number: 83.3

---

# assay details: Half life in human primary hepatocytes at 1 uM measured up to 3 hrs by LC-MS/MS analysis
# Type: ADME, cell-based, Hepatocyte

- molecule: "COC(=O)C1=C(C)NC(c2ncc(F)cc2F)=N[C@H]1c1ccc(F)cc1Cl"
  half-life at 1 µM / min: 189
- molecule: "CCOC(=O)C1=C(CN2CCOCC2)NC(c2nccs2)=NC1c1ccc(F)cc1Br (centres undefined)"
  half-life at 1 µM / min: 7.7
- molecule: "COc1ccccc1/C(Br)=C(\\NC(=O)c1ccc([N+](=O)[O-])cc1)C(=O)N1CCCCC1"
  half-life at 1 µM / min: 2.9
- molecule: "O=C(Nc1ccc(F)cc1)c1ccc(CF)c(S(=O)(=O)N2CCOCC(O)C2)c1 (centres undefined)"
  half-life at 1 µM / min: 20.5

---

# experimental target: CYP1A2 (Homo sapiens)
# Sequence (P05177 whole entry): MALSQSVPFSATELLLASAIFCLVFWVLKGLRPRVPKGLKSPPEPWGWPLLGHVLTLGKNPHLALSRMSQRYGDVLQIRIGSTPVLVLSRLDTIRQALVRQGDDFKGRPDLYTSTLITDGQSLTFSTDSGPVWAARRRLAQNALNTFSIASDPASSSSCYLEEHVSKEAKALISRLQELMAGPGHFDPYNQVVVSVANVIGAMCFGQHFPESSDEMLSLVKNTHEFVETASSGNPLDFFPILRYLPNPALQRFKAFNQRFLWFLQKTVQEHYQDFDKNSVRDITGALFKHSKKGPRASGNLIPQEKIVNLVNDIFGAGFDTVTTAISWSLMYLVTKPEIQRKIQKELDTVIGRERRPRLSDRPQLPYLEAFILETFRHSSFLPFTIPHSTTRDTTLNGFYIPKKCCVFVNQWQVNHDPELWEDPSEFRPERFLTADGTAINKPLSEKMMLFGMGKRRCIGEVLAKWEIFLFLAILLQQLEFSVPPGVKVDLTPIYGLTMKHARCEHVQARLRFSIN
# assay details: Inhibition of CYP1A2 in HBV-infected human HepaRG cells at 50 uM using luciferin-1A2 as substrate treated for 1 hr on day 5 post-infection followed by removal of media and supplemented with fresh media and further incubated for 3 days in presence of 10 mM ABT by P450-Glo chemiluminescent assay relative to control
# Format: ADME, tissue-based
# condition: probe luciferin-1A2, with ABT 10 mM

- item smiles: "CCCC(C(=O)OCCN(CC)CC)(c1ccccc1)c1ccccc1"
  inhibition at 1 h, 50 µM [%]: 39.2

---

# experimental target: CYP3A4 (Homo sapiens, UniProt P08684)
# Sequence (P08684 whole entry): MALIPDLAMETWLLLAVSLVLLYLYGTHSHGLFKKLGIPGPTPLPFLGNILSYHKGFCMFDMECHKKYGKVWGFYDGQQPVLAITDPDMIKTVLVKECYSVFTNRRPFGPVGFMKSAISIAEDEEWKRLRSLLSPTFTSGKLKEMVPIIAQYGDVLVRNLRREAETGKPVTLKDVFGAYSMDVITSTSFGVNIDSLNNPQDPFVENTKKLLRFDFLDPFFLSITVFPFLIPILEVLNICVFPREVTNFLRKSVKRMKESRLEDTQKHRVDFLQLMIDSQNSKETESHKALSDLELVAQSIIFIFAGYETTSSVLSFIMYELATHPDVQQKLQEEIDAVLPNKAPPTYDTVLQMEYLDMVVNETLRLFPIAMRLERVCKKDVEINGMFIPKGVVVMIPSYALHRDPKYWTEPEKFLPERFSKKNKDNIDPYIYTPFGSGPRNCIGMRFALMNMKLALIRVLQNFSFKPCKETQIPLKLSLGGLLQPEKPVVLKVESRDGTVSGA
# assay details: Inhibition of CYP3A4 in HBV-infected human HepaRG cells at 10 mM using luciferin-IPA as substrate treated for 1 hr on day 5 post-infection followed by removal of media and supplemented with fresh media and further incubated for 3 days then followed by treatment for 1 hr on day 8 post-infection followed by removal of media and supplemented with fresh media and further incubated for 3 days and measured on day 11 post-infection by P450-Glo chemiluminescent assay relative to control
# Format: ADME, tissue-based
# condition: probe luciferin-IPA

- item smiles: "Nn1nnc2ccccc21"
  inhibition at 1 h, 50 µM: "87.8%"

---

# experimental target: CYP2C9 (Homo sapiens, UniProt P11712)
# Sequence (P11712 whole entry): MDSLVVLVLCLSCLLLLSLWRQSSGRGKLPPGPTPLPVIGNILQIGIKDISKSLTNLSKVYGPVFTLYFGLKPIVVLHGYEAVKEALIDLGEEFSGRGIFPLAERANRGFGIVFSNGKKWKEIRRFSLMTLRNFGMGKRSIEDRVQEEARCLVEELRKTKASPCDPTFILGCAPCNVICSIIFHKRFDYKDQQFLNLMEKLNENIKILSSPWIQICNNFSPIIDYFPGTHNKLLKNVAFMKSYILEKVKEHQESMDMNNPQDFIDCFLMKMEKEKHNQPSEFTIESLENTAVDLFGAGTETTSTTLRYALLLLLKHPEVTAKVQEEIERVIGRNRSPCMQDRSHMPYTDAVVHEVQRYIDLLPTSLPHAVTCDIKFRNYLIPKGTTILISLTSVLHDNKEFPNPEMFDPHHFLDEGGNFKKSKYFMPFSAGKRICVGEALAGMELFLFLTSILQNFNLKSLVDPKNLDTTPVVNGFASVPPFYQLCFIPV
# assay details: Inhibition of CYP2C9 in HBV-infected human HepaRG cells at 50 uM using luciferin-H as substrate treated for 1 hr on day 5 post-infection followed by removal of media and supplemented with fresh media and further incubated for 3 days in presence of 10 mM ABT by P450-Glo chemiluminescent assay relative to control
# Assay type: ADME, tissue-based
# condition: probe luciferin-H, with ABT 10 mM
readout label: inhibition at 1 h, 50 µM (%)

- item smiles: "CCCC(C(=O)OCCN(CC)CC)(c1ccccc1)c1ccccc1"
  measured number: 36.9
